Reported peptide exchange yield values for a set of binders
biological target: T1, HLA-A*02:01 (human); experiment: UV peptide exchange ELISA
T1 construct: monomers captured on streptavidin plates; also called MHC class I
metric_name: peptide exchange yield

binder: SLLQDLVSV
result: 50 to 75%
--
binder: YLVAKLVEV
result: 20 to 50%
--
binder: FLLAEDDIYL
result: 50 to 75%
--
binder: YIMEPSIFNTL
result: 50 to 75%
--
binder: YLLPEEYTSTL
result: ≥ 75%
--
binder: YQYPRAILSV
result: 50 to 75%
--
binder: GLIEDYEALL
result: 50 to 75%
--
binder: SLAALVVHV
result: 50 to 75%

Reference source: patent US20170037110A1
